Consider the following compounds; for each one, report its GI50.
Tested on: OVCAR-4
Test: NCI tumour cell line growth inhibition, 48 h
Activity calls are given as the source filed them. Cut-off read from the data, not from the text of the source: active = GI50 up to about 1.1 µM and inactive = higher.

Entry `COC(=O)c1c(O)ccc2c1c1c(n2Cc2ccccc2OC)C(=O)c2ccccc2C1=O` ; GI50 = 11.7 µM (inactive)

Entry `O=C1C=CC2=[N+]([O-])C(c3ccccc3)(c3ccccc3)/C(=N\c3ccccc3)C2=C1` ; GI50 = 1.8 µM (inactive)

Entry `CC(C)=NNC(=S)NC12CC3CC(CC(C3)C1)C2` ; GI50 = > 100 µM (inactive)

Entry `O=c1[nH]c(C2CCCCC2)nc2c(Cl)cccc12` ; GI50 = > 100 µM (inactive)

Entry COc1cc(C2c3cc4c(cc3OC(N3CCCC3)C2C)OCO4)cc(OC)c1OC (stereo not given) ; GI50 = 2.31 µM (inactive)

Entry `NS(=O)(=O)c1nnc(NS(=O)(=O)c2ccccc2C(=O)O)s1` ; GI50 = > 100 µM (inactive)

Entry CC(C)CCCC(C)[C@H]1CCC2[C@@H]3CCC4Cc5nc6c(nc5C[C@]4(C)C3CC[C@@]21C)CC1CC[C@@H]2C(CC[C@@]3(C)C2CC[C@@H]3O)[C@@]1(C)C6 (stereo not given in full) ; GI50 = > 100 µM (inactive)

Entry CCOC(=O)C(Cc1ccccc1)NC(=O)c1ccc(/N=N/N(C)C)cc1 (stereo not given) ; GI50 = > 100 µM (inactive)

Entry COc1ccc2c(c1)O[C@@H]1C(O)Oc3cc(OC)c(OC)cc3[C@]1(O)C2=O (stereo not given in full) ; GI50 = 35.1 µM (inactive)

Entry `CC(C)(C)CC(C)(C)NC(=S)NO` ; GI50 = > 100 µM (inactive)
